- Test system: MALME-3M melanoma
- test_name: NCI tumour cell line growth inhibition, 48 h
Measured TGI values are reported for all entries that follow.

[[record]]
compound = "C#CCC(Cc1cnc2nc(N)nc(N)c2n1)c1ccc(C(=O)N[C@@H](CCC(=O)O)C(=O)O)cc1 (stereo not given in full)"
reported_endpoint = "TGI"
meas_value = "> 100 µM"


We next turn to a different compound, shown below.
[ask] Specify TGI for COc1ccc(C(=O)Cn2c(C(=O)/C=C/c3ccco3)nc3ccccc32)cc1 , system MALME-3M melanoma.
[reply] > 100 µM

====

- System: UO-31 renal
- test_name: NCI tumour cell line growth inhibition, 48 h
Each record here notes measured TGI.
State the answer as a number, implicitly in µM.

Below, each entry is followed by its recorded TGI result.
[[record]]
molecule = "Oc1cc(Br)cc2cccnc12"
measurement_target = "UO-31 renal"
display_unit = "µM"
meas_value = 35.9

[[record]]
molecule = "O=C1C=C(Sc2ccccc2)c2nccc3c2c1nc1ccccc13"
measurement_target = "UO-31 renal"
display_unit = "µM"
meas_value = 27.3

[[record]]
molecule = "Cc1sc2nc(-c3ccc(Cl)c([N+](=O)[O-])c3)c(/C=N/N=C(N)N)n2c1C"
measurement_target = "UO-31 renal"
display_unit = "µM"
meas_value = 3.07


Kindly review the next molecule as well.
[ask] Item CC(=O)OC(C)C1C2=C(C(=O)CC1(C)O)C(=O)c1c(ccc(-c3ccc4c(c3O)C(=O)C3=C(C4=O)C(C(C)OC(C)=O)C(C)(O)CC3=O)c1O)C2=O (centres undefined) : provide TGI
[reply] 9.16

====

# reported TGI; entries follow
- Test system: SR leukemia
- test_name: NCI tumour cell line growth inhibition, 48 h

[[record]]
compound = "CCCCc1c2c(nc3c1CCCC3O)CCCC2 (stereo not drawn)"
meas_value = "> 100 µM"


[ask] Quickly give me recorded TGI for c1ccc(N=C(Nc2ccccc2)N2CCCCC2)cc1
[reply] > 100 µM

[ask] Query TGI for Cc1nc2ccc(S(=O)(=O)Nc3ccccc3)cc2c(=O)n1NC(=O)CNc1ccccc1
[reply] > 100 µM

[ask] Please report TGI for the following compound: CC(C)(C)c1nn(-c2ccccc2)c2c1C(=O)CSC(c1ccccc1Cl)N2 (stereo not drawn)
[reply] 9.89 µM

[ask] Provide measured TGI value, entry: O=C1c2ccccc2C(=O)[C@@]23O[C@@]12C1(Oc2cccc4cccc(c24)O1)[C@@H]1O[C@@H]1[C@@H]3O
[reply] > 100 µM

[ask] Kindly indicate its recorded TGI. Item: CCOP(=O)(CCCC(O)CNc1cc(Cl)nc(N)n1)OCC (stereo not drawn)
[reply] > 100 µM

[ask] Return value of TGI for input O=NNc1ccc(S(=O)(=O)c2ccccc2)cn1 , no commentary.
[reply] > 100 µM

[ask] Read the entry CC(=O)N1OC(C)CC1Nc1ccc(Br)cc1 (stereo not drawn) and write its reported TGI.
[reply] > 100 µM

[ask] Item CC(=O)NC(C)(C)C1CC=C(C)CC1 (stereo not drawn) : provide TGI
[reply] > 100 µM

[ask] Please list TGI recorded for the compound CC1(CO)OC(n2cc(C(=O)NC(=O)OCc3ccccc3)c(=O)[nH]c2=O)CC1O (stereo not drawn)
[reply] > 100 µM

[ask] Respond only with TGI recorded for O=C1C(Cl)=C(Nc2cccc(Cl)c2)C(=O)N1Cc1ccccc1Cl
[reply] 0.645 µM

[ask] For the compound Nc1ncnc2c1nc(Cl)n2C1OC2COP(=O)(O)OC2C1O (stereo not drawn) , give its reported TGI.
[reply] > 300 µM

[ask] Answer with reported TGI of COc1ccc(C(=O)Cc2c(C(=O)c3ccccc3)c3ccccc3n2C(=O)c2ccccc2)cc1
[reply] > 100 µM

[ask] # return recorded TGI for entry O=C(CO)CC(=O)C(=O)Nc1ccccc1
[reply] > 100 µM

[ask] Give TGI for O=C(c1ccco1)c1nc2cc(Cl)ccc2[n+]([O-])c1C(F)(F)F
[reply] 44.3 µM

[ask] Respond only with TGI recorded for COc1ccc(/C=C\c2cc(OC)c(OC)c(OC)c2)cc1OC(=O)c1cccc(Cn2cc(CCOC(=O)[C@H](N)Cc3cn(C)c4ccccc34)nn2)c1
[reply] 2.66 µM

[ask] Please give measured TGI of the following entry: COC(=O)Nc1nc2cc(OC)c(OC)cc2c(=O)[nH]1
[reply] > 100 µM

[ask] Dear colleague, please send me the reported TGI for Cc1cc2nc3c4cc(N)ccc4n(CCN(C)C)c3nc2cc1C when you can.
[reply] 7.29 µM

====

Quick list: TGI per entry.
- System: CCRF-CEM leukemia
- test_name: NCI tumour cell line growth inhibition, 48 h

[[record]]
compound = "COc1cc(/C=C(\\C#N)C(=O)c2ccccc2)ccc1O"
meas_value = "> 100 µM"

[[record]]
compound = "Ic1ccccc1-c1ccccc1"
meas_value = "> 100 µM"

[[record]]
compound = "CCC1(c2c(F)c(F)c(N)c(F)c2F)CCC(=O)NC1=O (stereo not drawn)"
meas_value = "> 100 µM"

[[record]]
compound = "NC(N)=N/N=C\\c1cccc(OCc2ccccc2)c1"
meas_value = "33.7 µM"

[[record]]
compound = "CC(=O)OCC1OC(n2c(-c3ccccc3)c(C(C)=O)c(-c3ccc(Cl)cc3)c(C#N)c2=S)C(OC(C)=O)C(OC(C)=O)C1OC(C)=O (stereo not drawn)"
meas_value = "> 100 µM"


[ask] Please indicate recorded TGI of COc1cc(OC)c2c(=O)cc(-c3ccccc3F)[nH]c2c1 measured with CCRF-CEM leukemia.
[reply] > 100 µM

[ask] Param request: TGI | system CCRF-CEM leukemia | item O/C(=C\c1nc2ccccc2nc1/C=C(\O)c1ccc(Cl)cc1)c1ccccc1
[reply] > 100 µM

[ask] # assay system CCRF-CEM leukemia: give TGI of N#CCCCC[N+]12CN3CN(CN(C3)C1)C2
[reply] > 100 µM

[ask] Report value only: TGI, CCRF-CEM leukemia, Clc1ccc2c(c1)C1C(CO2)C(c2ccccc2)=NN1c1ccccc1 (stereo not drawn)
[reply] 99.1 µM

[ask] Enter TGI (test system CCRF-CEM leukemia) for O=C1c2ccccc2C(=O)[C@@]23O[C@@]12C1(Oc2cccc4cccc(c24)O1)[C@@H]1O[C@@H]1[C@@H]3O
[reply] > 38.7 µM

[ask] Write TGI of CCCCCCCCCCCCCC(=O)CC(=O)c1c(O)cccc1O ; system used: CCRF-CEM leukemia
[reply] 41.6 µM

====

TGI by entry:
- Tested on: RPMI-8226 leukemia
- test_name: NCI tumour cell line growth inhibition, 48 h

Previously resolved entries follow.
[[record]]
compound = "Cc1nc(Nc2ccccc2Cl)sc1C(=O)CC(=O)C(=O)Nc1c(Cl)cccc1Cl"
meas_value = "> 100 µM"

[[record]]
compound = "CCN=C(NNc1ccc([N+](=O)[O-])cc1)P(=O)(OC(C)C)OC(C)C"
meas_value = "> 100 µM"

[[record]]
compound = "O=C(NC(CS)C(=O)O)c1cccc2c(=O)c3ccccc3[nH]c12 (configuration not stated)"
meas_value = "> 100 µM"

[[record]]
compound = "CC(C)(C)c1cc(C2NCCO2)cc(C(C)(C)C)c1O (configuration not stated)"
meas_value = "> 100 µM"

[[record]]
compound = "COc1cc(NC(C)=O)ccc1C(=O)N/N=C/c1ccc(Cl)cc1Cl"
meas_value = "> 100 µM"

[[record]]
compound = "OC1(c2ccccc2)CC2CCC(C1)N2CCCC1(c2ccc(F)cc2)OCCO1 (configuration not stated)"
meas_value = "> 100 µM"


Okay, next one:
[ask] # return recorded TGI for entry N#Cc1nc2c(S(=O)(=O)c3ccccc3)c(N)n(Cc3cccnc3)c2nc1C#N
[reply] > 100 µM

====

- System: RXF 393 renal
- test_name: NCI tumour cell line growth inhibition, 48 h
reported_endpoint: TGI

Before answering, review these 2 worked examples.
[[record]]
compound = "Nc1ncnc2c1nc(Cl)n2C1OC2COP(=O)(O)OC2C1O (stereo unspecified)"
reported_endpoint = "TGI"
meas_value = "> 300 µM"

[[record]]
compound = "COc1ccc2nc3ccc(OC)cc3c(SCc3ccc([N+](=O)[O-])cc3)c2c1"
reported_endpoint = "TGI"
meas_value = "> 100 µM"


[ask] Read the entry COc1ccc(C(=O)Cn2c(C(=O)/C=C/c3ccco3)nc3ccccc32)cc1 and write its reported TGI.
[reply] > 100 µM

[ask] # return recorded TGI for input Cc1cc2nc(CCC(=O)O)c(=O)[nH]c2cc1C
[reply] > 100 µM

====

- Test system: SF-295 CNS
- test_name: NCI tumour cell line growth inhibition, 48 h
Entries annotated with measured TGI

Use these answered entries as a reference point.
[[record]]
compound = "[O-][n+]1onc2c1CCC(=N\\O)/C2=N/Nc1ccccc1"
meas_value = "> 100 µM"

[[record]]
compound = "COC(=O)c1ccccc1CC1Cc2ccc3c(c2C1)CCC3 (stereo not drawn)"
meas_value = "> 100 µM"

[[record]]
compound = "c1ccc(N=C(Nc2ccccc2)N2CCCCC2)cc1"
meas_value = "> 100 µM"

[[record]]
compound = "COc1cc(/C=C(\\C#N)C(=O)c2ccccc2)ccc1O"
meas_value = "> 100 µM"

[[record]]
compound = "Cc1ccc(-n2c3c(c4c(CN(C)C)c(O)ccc42)CCc2ccccc2C3=O)cc1"
meas_value = "35.9 µM"

[[record]]
compound = "CC(C)(C)c1nn(-c2ccccc2)c2c1C(=O)CSC(c1ccccc1Cl)N2 (stereo not drawn)"
meas_value = "10.5 µM"


[ask] Please list TGI recorded for the compound C#CCOc1c(C(=O)OCC)c(=O)n(C)c2ccccc12
[reply] > 100 µM

[ask] Return TGI for the following compound: COc1cc(C)c(Cl)cc1C1=NN(c2ccc(S(N)(=O)=O)cc2)C(/C=C/c2ccccc2)C1 (stereo not drawn)
[reply] 13.6 µM

Recorded values, source PubChem BioAssay (NCI).
